Source of measurements: ChEMBL document CHEMBL4251611

Give measured MIC90 for each item. Keep answers brief.
- Tested on: Pichia kudriavzevii
- assayOverview: Antifungal activity against Candida krusei ATCC 6258 by broth microdilution assay
- Assay type: functional

Enter recorded MIC90 with Pichia kudriavzevii for `COc1ccc(NC(=O)CSc2nnc(CCSc3nncn3C)o2)cc1` here.
500 µg/mL

Retrieve MIC90 on Pichia kudriavzevii; query `Cn1cnnc1SCCc1nnc(SCC(=O)Nc2nc3ccc(Cl)cc3s2)o1`
500 µg/mL

Recall the reported MIC90 of `Cn1cnnc1SCCc1nnc(SCC(=O)Nc2ccccc2)o1` on Pichia kudriavzevii and write it down.
500 µg/mL

Specify MIC90 for `Cn1cnnc1SCCc1nnc(SCC(=O)Nc2ccc([N+](=O)[O-])cc2)o1` , system Pichia kudriavzevii.
125 µg/mL

Give Pichia kudriavzevii MIC90 for the following compound: `Clc1ccccc1C(c1ccccc1)(c1ccccc1)n1ccnc1`
1.56 µg/mL

====

Give measured MIC90 for each item. Keep answers brief.
- Test system: Nakaseomyces glabratus
- assayOverview: Antifungal activity against Candida glabrata ATCC 90030 by broth microdilution assay
- Assay type: functional
Give just the numeric value; µg/mL need not be written.

Using Nakaseomyces glabratus as the test system, report measured MIC90 of `Cn1cnnc1SCCc1nnc(SCC(=O)Nc2nc3ccc([N+](=O)[O-])cc3s2)o1` .
500

Provide measured MIC90 on Nakaseomyces glabratus for `Cn1cnnc1SCCc1nnc(SCC(=O)Nc2nc3ccc(Cl)cc3s2)o1` please.
500

Report measured MIC90 on Nakaseomyces glabratus; entry: `Cn1cnnc1SCCc1nnc(SCC(=O)Nc2nc3ccc(F)cc3s2)o1`
62.5

Tell me MIC90 of `Cn1cnnc1SCCc1nnc(SCC(=O)Nc2ccc(F)cc2)o1` when tested on Nakaseomyces glabratus.
250
